System: p-BTK (WT) (Homo sapiens (Human))
Sequence (Q06187 whole entry): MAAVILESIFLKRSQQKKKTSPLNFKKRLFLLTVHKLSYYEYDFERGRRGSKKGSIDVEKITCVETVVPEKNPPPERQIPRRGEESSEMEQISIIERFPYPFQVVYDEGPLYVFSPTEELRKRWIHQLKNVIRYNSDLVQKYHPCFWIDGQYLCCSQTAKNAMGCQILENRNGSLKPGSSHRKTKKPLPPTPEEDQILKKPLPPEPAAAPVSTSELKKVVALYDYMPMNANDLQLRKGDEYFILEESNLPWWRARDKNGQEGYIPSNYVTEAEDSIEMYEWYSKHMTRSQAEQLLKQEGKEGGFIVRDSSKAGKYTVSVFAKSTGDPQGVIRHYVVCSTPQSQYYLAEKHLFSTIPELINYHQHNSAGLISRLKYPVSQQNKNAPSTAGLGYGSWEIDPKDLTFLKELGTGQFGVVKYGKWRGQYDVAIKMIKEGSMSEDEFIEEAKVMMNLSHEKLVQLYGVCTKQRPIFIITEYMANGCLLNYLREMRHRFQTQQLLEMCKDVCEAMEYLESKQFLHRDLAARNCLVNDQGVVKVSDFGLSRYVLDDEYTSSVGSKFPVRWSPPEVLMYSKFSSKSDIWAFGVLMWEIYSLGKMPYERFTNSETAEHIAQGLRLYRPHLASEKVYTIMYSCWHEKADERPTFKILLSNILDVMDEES
Experiment: p-BTK cell experiment, HEK293 transfected with WT-BTK plasmid (P-BTK Y223 sandwich ELISA)
Measurement Parameters: HEK293 cells, compound cultured for two hours
IC50 values for the compounds below.
Measured Endpoint: IC50

INSERT INTO measurements (compound, measured_endpoint, assay_value) VALUES
  ('[2H]C([2H])([2H])OC[C@]1(C)Nc2c(cnc3[nH]cc(C(=O)c4ccc(Oc5ccccc5)cc4Cl)c23)NC1=O (single isomer, unassigned)', 'IC50', '29.6 nM'),
  ('O=C(c1ccc(Oc2ccccc2)cc1Cl)c1c[nH]c2ncc3c(c12)NC1(CCOCC1)C(=O)N3', 'IC50', '31.5 nM'),
  ('COCC1(C)Nc2c(cnc3[nH]cc(C(=O)c4ccc(Oc5cc(C)ccn5)cc4Cl)c23)NC1=O (stereo not shown) [Z64]', 'IC50', '65.8 nM'),
  ('CC1(CO)Nc2c(cnc3[nH]cc(C(=O)c4ccc(Oc5ccccc5)cc4Cl)c23)NC1=O (stereo not shown)', 'IC50', '23.5 nM');
